B1: Low-density lipoprotein receptor-related protein 6 (Homo sapiens), O75581 (parent)
chain: MGAVLRSLLACSFCVLLRAAPLLLYANRRDLRLVDATNGKENATIVVGGLEDAAAVDFVFSHGLIYWSDVSEEAIKRTEFNKTESVQNVVVSGLLSPDGLACDWLGEKLYWTDSETNRIEVSNLDGSLRKVLFWQELDQPRAIALDPSSGFMYWTDWGEVPKIERAGMDGSSRFIIINSEIYWPNGLTLDYEEQKLYWADAKLNFIHKSNLDGTNRQAVVKGSLPHPFALTLFEDILYWTDWSTHSILACNKYTGEGLREIHSDIFSPMDIHAFSQQRQPNATNPCGIDNGGCSHLCLMSPVKPFYQCACPTGVKLLENGKTCKDGATELLLLARRTDLRRISLDTPDFTDIVLQLEDIRHAIAIDYDPVEGYIYWTDDEVRAIRRSFIDGSGSQFVVTAQIAHPDGIAVDWVARNLYWTDTGTDRIEVTRLNGTMRKILISEDLEEPRAIVLDPMVGYMYWTDWGEIPKIERAALDGSDRVVLVNTSLGWPNGLALDYDEGKIYWGDAKTDKIEVMNTDGTGRRVLVEDKIPHIFGFTLLGDYVYWTDWQRRSIERVHKRSAEREVIIDQLPDLMGLKATNVHRVIGSNPCAEENGGCSHLCLYRPQGLRCACPIGFELISDMKTCIVPEAFLLFSRRADIRRISLETNNNNVAIPLTGVKEASALDFDVTDNRIYWTDISLKTISRAFMNGSALEHVVEFGLDYPEGMAVDWLGKNLYWADTGTNRIEVSKLDGQHRQVLVWKDLDSPRALALDPAEGFMYWTEWGGKPKIDRAAMDGSERTTLVPNVGRANGLTIDYAKRRLYWTDLDTNLIESSNMLGLNREVIADDLPHPFGLTQYQDYIYWTDWSRRSIERANKTSGQNRTIIQGHLDYVMDILVFHSSRQSGWNECASSNGHCSHLCLAVPVGGFVCGCPAHYSLNADNRTCSAPTTFLLFSQKSAINRMVIDEQQSPDIILPIHSLRNVRAIDYDPLDKQLYWIDSRQNMIRKAQEDGSQGFTVVVSSVPSQNLEIQPYDLSIDIYSRYIYWTCEATNVINVTRLDGRSVGVVLKGEQDRPRAVVVNPEKGYMYFTNLQERSPKIERAALDGTEREVLFFSGLSKPIALALDSRLGKLFWADSDLRRIESSDLSGANRIVLEDSNILQPVGLTVFENWLYWIDKQQQMIEKIDMTGREGRTKVQARIAQLSDIHAVKELNLQEYRQHPCAQDNGGCSHICLVKGDGTTRCSCPMHLVLLQDELSCGEPPTCSPQQFTCFTGEIDCIPVAWRCDGFTECEDHSDELNCPVCSESQFQCASGQCIDGALRCNGDANCQDKSDEKNCEVLCLIDQFRCANGQCIGKHKKCDHNVDCSDKSDELDCYPTEEPAPQATNTVGSVIGVIVTIFVSGTVYFICQRMLCPRMKGDGETMTNDYVVHGPASVPLGYVPHPSSLSGSLPGMSRGKSMISSLSIMGGSSGPPYDRAHVTGASSSSSSSTKGTYFPAILNPPPSPATERSHYTMEFGYSSNSPSTHRSYSYRPYSYRHFAPPTTPCSTDVCDSDYAPSRRMTSVATAKGYTSDLNYDSEPVPPPPTPRSQYLSAEENYESCPPSPYTERSYSHHLYPPPPSPCTDSS
partner: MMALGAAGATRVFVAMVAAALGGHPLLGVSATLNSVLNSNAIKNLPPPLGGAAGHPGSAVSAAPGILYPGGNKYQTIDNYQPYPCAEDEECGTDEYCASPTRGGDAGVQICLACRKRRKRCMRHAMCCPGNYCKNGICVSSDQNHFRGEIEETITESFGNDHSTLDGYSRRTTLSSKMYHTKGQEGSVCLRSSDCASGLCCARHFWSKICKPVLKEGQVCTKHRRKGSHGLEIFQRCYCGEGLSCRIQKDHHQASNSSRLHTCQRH

# Variants of: B1
# condition: with dkk1_human DKK1, O94907
readout_kind: effect of a mutation on the interaction

The cases that follow already have their effect of a mutation on the interaction on record.
// returns reported effect of a mutation on the interaction for input N185S
disrupting interaction

// returns reported effect of a mutation on the interaction for input A229T
disrupting interaction

// returns reported effect of a mutation on the interaction for input R141M
disrupting interaction

// returns reported effect of a mutation on the interaction for input D98Y
disrupting interaction

// switching to the query variant
// returns reported effect of a mutation on the interaction for input A201V
disrupting interaction
